assay: LNP size and polydispersity index (PDI) by dynamic light scattering (DLS); assay type: physicochemical; conditions: Table 6; LNP lipid:DSPC:Cholesterol:DMG-PEG2k 50:10:38.5:1.5 mol %; hEPO mRNA; N:P 6
Measured attribute: Size (nm)
Write it as a number; the unit nm goes unstated.

Examples with their reported Size follow.
CCCCCCCCC(CCCCCC)C(=O)OCCN(CCOC(=O)C(CCCCCC)CCCCCCCC)C(=O)CCCN (stereo not drawn) = 96
CCCCCCCCC(CCCCCC)C(=O)OCCN(CCOC(=O)C(CCCCCC)CCCCCCCC)C(=O)CCC(C)N (stereo not drawn) = 110.2
CCCCCCCCC(CCCCCC)C(=O)OCCN(CCOC(=O)C(CCCCCC)CCCCCCCC)C(=O)CCN(C)C (stereo not drawn) = 96.3
CCCCCCCCC(CCCCCC)C(=O)OCCN(CCOC(=O)C(CCCCCC)CCCCCCCC)C(=O)CCCN(C)C (stereo not drawn) = 77.7
CCCCCCCCC(CCCCCC)C(=O)OCCN(CCOC(=O)C(CCCCCC)CCCCCCCC)C(=O)CC(C)N (stereo not drawn) = 104.5

Lab note: CCCCCCCCC(CCCCCC)C(=O)OCCN(CCOC(=O)C(CCCCCC)CCCCCCCC)C(=O)CCN (stereo not drawn) gave Size of 105.8
